Measured values drawn from patent US20240116985A1 for this set.

Tested on: beta-catenin/TCF4 engagement (Homo sapiens, UniProt P35222)
Construct: expressed in transfected cells; host or cells: HEK293
Sequence (P35222 whole entry): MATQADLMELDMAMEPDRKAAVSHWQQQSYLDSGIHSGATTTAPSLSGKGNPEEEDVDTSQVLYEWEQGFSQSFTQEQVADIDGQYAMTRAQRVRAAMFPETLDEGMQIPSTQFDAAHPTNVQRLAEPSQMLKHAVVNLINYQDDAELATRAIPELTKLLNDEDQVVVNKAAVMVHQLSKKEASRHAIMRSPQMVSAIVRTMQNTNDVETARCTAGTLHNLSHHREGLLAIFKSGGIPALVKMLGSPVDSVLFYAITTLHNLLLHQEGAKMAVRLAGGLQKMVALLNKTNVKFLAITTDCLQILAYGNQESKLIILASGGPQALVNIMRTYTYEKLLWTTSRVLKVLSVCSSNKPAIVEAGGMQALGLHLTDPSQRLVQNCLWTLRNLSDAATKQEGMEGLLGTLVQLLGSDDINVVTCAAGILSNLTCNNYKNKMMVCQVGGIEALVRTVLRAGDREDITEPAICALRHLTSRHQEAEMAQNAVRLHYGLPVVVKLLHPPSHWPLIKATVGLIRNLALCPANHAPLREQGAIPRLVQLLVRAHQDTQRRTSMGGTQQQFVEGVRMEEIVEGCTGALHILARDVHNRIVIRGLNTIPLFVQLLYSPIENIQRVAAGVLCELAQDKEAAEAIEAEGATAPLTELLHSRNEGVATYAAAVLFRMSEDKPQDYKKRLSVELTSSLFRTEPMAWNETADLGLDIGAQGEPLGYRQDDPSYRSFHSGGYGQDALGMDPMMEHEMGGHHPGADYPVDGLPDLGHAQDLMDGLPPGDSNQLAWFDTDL
Method notes: Nano-BRET target engagement assay (B-cat-Halo & TCF4-Luc in HEK293 cells)
Type: cell-based
Condition context: read-out: NanoBRET Abs IC50
Quick reference for IC50 among some molecules
Could you give me the number in µM? Just the number is fine.

- Molecule: "CC(=O)N1CCC[C@]12CC=CCCCC1(CCCC=CCCCOC(=O)N3CC[C@@](C(=O)N[C@@H](Cc4ccccc4Cl)C(=O)N[C@@H](Cc4csc5ccccc45)C(=O)N[C@@H](CCC(N)=O)C(N)=O)(C3)NC(=O)[C@H](CC(C)C)NC(=O)[C@H](Cc3ccccc3)NC(=O)[C@H](C)NC(=O)[C@H](C)NC(=O)[C@H](CC(=O)O)NC(=O)[C@H](CC(=O)O)NC1=O)NC(=O)[C@H](CC(C)(C)C)NC(=O)[C@H](CC(=O)O)NC2=O (stereo partly drawn)"
  IC50, µM: 4.7

// next item, IC50 requested
# returns recorded IC50 (system: beta-catenin/TCF4 engagement (Homo sapiens, UniProt P35222)) for CC(=O)N1CCC[C@]12CC=CCCCC1(CCCC=CCCCCCC[C@@](C)(C(=O)N[C@@H](Cc3ccccc3Cl)C(=O)N[C@@H](Cc3csc4ccccc34)C(=O)N[C@@H](CCO)C(N)=O)NC(=O)[C@H](CO)NC(=O)[C@H](Cc3ccccc3)NC(=O)[C@H](C)NC(=O)[C@H](C)NC(=O)[C@H](CN(CC(=O)O)CC(F)(F)F)NC(=O)[C@H](CC(=O)O)NC1=O)NC(=O)[C@H](CC(C)(C)C)NC(=O)[C@H](CC(=O)O)NC2=O (single isomer, unassigned)
26.3
